Reference source for all entries: paper PMC7413294

Tested on: K-channel
Test: Whole-cell patch clamp inhibition of K-channel
Type: cell-based
Details: read-out: IC50, K-channel IKd in DRG neurons; IKd; mouse DRG neurons

TEST SMILES	EXPERIMENTAL TARGET	IC50, nM
c1ccc(-c2nnc(N3CCCCC3)o2)cc1	K-channel	2600

====

Target: T-Cav3.2-channel (Mus musculus)
Experiment: Whole-cell patch clamp inhibition of T-Cav3.2 channel in mouse DRG neurons
Format: cell-based

TEST SMILES	IC50 (µM)
O=C(Nc1nnc(-c2ccccc2)o1)c1ccc(Cl)s1	0.93

====

Catalogue of Inhibition (%) of Na- channel in DRG neurons values
System: Na-channel
Assay: Whole-cell patch clamp inhibition of Na-channel in mouse DRG neurons
Type: cell-based
Settings: 1 µM
QUANTITY KIND: Inhibition (%) of Na- channel in DRG neurons

COMPOUND	OBSERVED
O=C(Nc1nnc(-c2ccccc2)o1)c1ccc(Cl)s1	16.5±8.9 (n=7) %
O=C(Nc1nnc(-c2ccc(Cl)s2)o1)c1ccccc1	−71.8 (n=1) %
N#CC1CCN(CC(=O)Nc2nnc(-c3ccccc3)o2)CC1	−4.7 (n=1) %
c1ccc(-c2nnc(N3CCCCC3)o2)cc1	25.7±6.3%
CC(C)(C)NC(=O)CN1CCC(CNC(=O)c2cc(F)cc(Cl)c2)CC1 [Compound Z944, reference compound]	49.7±6%
O=C(CN1CCCCC1)Nc1nnc(-c2ccccc2)o1	−2.7 (n=1) %

====

Recorded inhibition at 1 µM, one value per entry.
Molecular target: T-Cav3.2-channel (Mus musculus, UniProt O88427)
Sequence (O88427 whole entry): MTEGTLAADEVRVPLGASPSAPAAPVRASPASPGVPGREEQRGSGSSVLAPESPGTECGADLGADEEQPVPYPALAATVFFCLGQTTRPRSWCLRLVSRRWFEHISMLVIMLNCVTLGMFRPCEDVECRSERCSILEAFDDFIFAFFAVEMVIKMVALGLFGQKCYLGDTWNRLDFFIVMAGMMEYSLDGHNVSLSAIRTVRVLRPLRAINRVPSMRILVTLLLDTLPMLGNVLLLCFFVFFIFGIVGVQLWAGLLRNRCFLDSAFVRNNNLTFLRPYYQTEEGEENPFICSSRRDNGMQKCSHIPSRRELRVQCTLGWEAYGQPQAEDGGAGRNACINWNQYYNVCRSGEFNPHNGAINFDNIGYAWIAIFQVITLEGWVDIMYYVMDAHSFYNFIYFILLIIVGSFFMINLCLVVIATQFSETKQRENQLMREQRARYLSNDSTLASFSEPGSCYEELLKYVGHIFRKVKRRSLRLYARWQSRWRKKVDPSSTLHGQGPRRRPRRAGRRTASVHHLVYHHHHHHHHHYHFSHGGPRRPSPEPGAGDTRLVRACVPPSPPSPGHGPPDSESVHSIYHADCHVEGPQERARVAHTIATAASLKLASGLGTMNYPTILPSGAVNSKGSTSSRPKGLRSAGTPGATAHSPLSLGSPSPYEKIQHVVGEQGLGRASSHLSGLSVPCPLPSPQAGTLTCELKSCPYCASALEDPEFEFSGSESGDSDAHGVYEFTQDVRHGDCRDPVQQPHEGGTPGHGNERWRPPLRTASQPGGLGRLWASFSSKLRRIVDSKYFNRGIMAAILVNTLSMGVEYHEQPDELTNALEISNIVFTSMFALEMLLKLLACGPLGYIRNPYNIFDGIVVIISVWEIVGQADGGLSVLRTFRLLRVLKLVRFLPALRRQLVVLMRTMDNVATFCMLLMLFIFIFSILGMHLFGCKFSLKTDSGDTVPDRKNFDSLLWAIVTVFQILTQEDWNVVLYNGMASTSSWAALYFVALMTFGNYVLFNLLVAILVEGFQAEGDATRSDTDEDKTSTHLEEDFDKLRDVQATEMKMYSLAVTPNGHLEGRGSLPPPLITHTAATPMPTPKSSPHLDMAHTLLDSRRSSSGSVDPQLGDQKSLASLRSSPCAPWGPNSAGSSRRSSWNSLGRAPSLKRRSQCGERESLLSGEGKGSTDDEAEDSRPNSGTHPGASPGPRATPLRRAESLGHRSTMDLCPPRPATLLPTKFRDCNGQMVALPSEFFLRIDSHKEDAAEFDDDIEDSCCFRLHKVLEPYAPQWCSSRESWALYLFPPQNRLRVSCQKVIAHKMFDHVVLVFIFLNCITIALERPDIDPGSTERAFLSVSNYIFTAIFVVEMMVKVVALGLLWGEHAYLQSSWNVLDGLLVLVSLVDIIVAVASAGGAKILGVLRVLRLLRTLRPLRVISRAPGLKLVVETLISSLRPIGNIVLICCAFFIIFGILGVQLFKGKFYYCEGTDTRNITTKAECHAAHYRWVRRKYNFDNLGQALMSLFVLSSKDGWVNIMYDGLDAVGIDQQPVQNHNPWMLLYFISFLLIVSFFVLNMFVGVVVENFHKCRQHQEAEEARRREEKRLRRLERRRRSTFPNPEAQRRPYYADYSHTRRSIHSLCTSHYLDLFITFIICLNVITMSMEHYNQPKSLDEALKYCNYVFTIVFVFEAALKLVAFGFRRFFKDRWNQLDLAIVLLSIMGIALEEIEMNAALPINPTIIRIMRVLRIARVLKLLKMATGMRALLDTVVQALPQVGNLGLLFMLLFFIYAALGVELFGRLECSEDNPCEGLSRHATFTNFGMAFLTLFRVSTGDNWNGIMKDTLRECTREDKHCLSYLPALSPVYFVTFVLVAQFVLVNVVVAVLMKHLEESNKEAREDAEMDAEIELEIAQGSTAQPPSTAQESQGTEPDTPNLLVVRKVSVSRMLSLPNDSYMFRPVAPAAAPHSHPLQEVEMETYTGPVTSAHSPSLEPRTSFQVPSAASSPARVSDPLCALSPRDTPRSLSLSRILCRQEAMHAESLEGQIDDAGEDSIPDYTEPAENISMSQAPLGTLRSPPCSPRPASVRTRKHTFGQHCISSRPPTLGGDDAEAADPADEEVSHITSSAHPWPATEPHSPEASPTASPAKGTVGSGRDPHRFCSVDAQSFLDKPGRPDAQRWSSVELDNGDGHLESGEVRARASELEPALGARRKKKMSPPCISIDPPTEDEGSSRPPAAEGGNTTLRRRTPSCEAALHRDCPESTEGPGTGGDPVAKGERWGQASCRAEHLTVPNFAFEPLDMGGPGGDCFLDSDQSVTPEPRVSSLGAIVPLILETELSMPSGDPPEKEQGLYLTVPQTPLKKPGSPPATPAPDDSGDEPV
Assay: Whole-cell patch clamp inhibition of T-Cav3.2 channel in mouse DRG neurons
Format: cell-based
Conditions: DRG neuron, read-out: Inhibition (%) of T-Cav3.2- channel in DRG neurons

TEST SMILES	U	inhibition at 1 µM
O=C(Nc1nnc(-c2ccc(Cl)s2)o1)c1ccccc1	%	24.4
O=C(CN1CCCCC1)Nc1nnc(-c2ccccc2)o1	%	55.4
O=C(CN1CCC(C(=O)Nc2nnc(-c3ccc(Cl)s3)o2)CC1)Nc1ccccc1	%	79.5
O=C(CCc1cccc(Cl)c1)Nc1nnc(-c2ccc(Cl)s2)o1	%	20.4
c1ccc(-c2nnc(N3CCCCC3)o2)cc1	%	44.2
O=C(Nc1nnc(-c2ccccc2F)o1)c1ccc(Cl)s1	%	60.9
N#CC1CCN(CC(=O)Nc2nnc(-c3ccccc3)o2)CC1	%	69.6
O=C(CCc1cccc(Cl)c1)Nc1nnc(-c2ccccc2)o1	%	5
O=C(Nc1nnc(-c2ccccc2)o1)c1ccc(Cl)s1	%	50
